- EXPERIMENTAL_TARGET: GABA-A receptor; anion channel
- PROTOCOL_DETAILS: In vitro affinity against Benzodiazepine receptor binding to rat cortical membranes (using [3H]- flumazenil as radioligand).
pKi: −log10 of the molar value.
Label condition met when pKi is at or above 7; otherwise label condition not met.

> print(dat)
                                   molecule        group.label
1           O=c1c(Br)c(-c2ccccc2)oc2ccccc12  condition not met
2         O=c1cc(-c2ccccc2)oc2cc(O)cc(O)c12  condition not met
3      O=c1cc(-c2ccc(O)cc2)oc2cc(O)cc(O)c12  condition not met
4  Cc1ccc2oc(-c3cccc([N+](=O)[O-])c3)cc(=O)c2c1[N+](=O)[O-]      condition met
5  Cc1ccc2sc(-c3cccc([N+](=O)[O-])c3)cc(=O)c2c1      condition met
6         O=c1cc(-c2ccccc2)oc2ccc3ccccc3c12  condition not met
7  O=c1cc(-c2ccccc2)oc2cccc(O)c12 [5-HYDROXYFLAVONE]  condition not met
8  Cc1ccc2oc(-c3ccc([N+](=O)[O-])cc3)cc(=O)c2c1  condition not met

====

Overview of reported GABA ratio across a group of molecules:
- EXPERIMENTAL_TARGET: GABA-A receptor; anion channel (Rattus norvegicus) (UniProt O09028+P15431+P18506+P18508+P19969+P20236+P23574+P23576+P28471+P28473+P30191+P62813+P63079+P63138+Q91ZM7+Q9ES14)
- PROTOCOL_DETAILS: Ratio of Ki value without GABA and Ki value in the presence of GABA.
- Assay type: protein-complex assay
MEASURED_QUANTITY: GABA ratio

> print(dat)
                                   molecule  measured.quantity  experimental.value
1  O=c1cc(-c2ccccc2)oc2cccc(O)c12 [5-HYDROXYFLAVONE]         GABA ratio                1.03
2  O=c1cc(-c2ccccc2)oc2ccc(O)cc12 [6-HYDROXYFLAVONE]         GABA ratio                1.06
3  O=c1cc(-c2ccccc2)oc2cc(O)ccc12 [7-HYDROXYFLAVONE]         GABA ratio                1.14
4  Cc1ccc2oc(-c3cccc([N+](=O)[O-])c3)cc(=O)c2c1         GABA ratio                0.72
5  Cc1ccc2sc(-c3cccc([N+](=O)[O-])c3)cc(=O)c2c1         GABA ratio                1.51
6               O=c1cc(-c2ccccc2)oc2ccccc12         GABA ratio                1.05
7  O=c1cc(-c2cccc([N+](=O)[O-])c2)oc2ccc([N+](=O)[O-])cc12         GABA ratio                 1.3
